Origin of the recorded values: patent US20230201025A1

# Test system: Streptococcus mutans
# Assay info: calorimetric measurement of suppression of bacterial growth (S. mutans)
# Type: cell-based
# Cond: single essential oil component at 0.1% in BHI
# Description: Finally, additional calorimetric experiments were performed to measure the capability of different agents of suppressing the growth of bacteria such as Streptococcus mutans and Streptococcus mitis. […] As figure of merits, the lag phase, defined as the postponement in time of the growth of the bacteria and measured in hours, and the growth rate (increase in number of bacteria/time), measured in J/h, of the Streptococcus populations were determined as follows: […]
For each entry below, report its growth rate (J/h) of S. mutans value.

For every item in the list below, what is its measured growth rate (J/h) of S. mutans?
1. CC12CCC(CC1)C(C)(C)O2 [Eucalyptol]
2. O=CC=Cc1ccccc1 [cinnam aldehyde, cinnamaldehyde]
3. C/C=C/c1ccc(OC)cc1 [trans-anethole]
4. COC(=O)c1ccccc1O [methyl salicylate]

Reply:
1.3 J/h
0 J/h
0.03 J/h
1.2 J/h

----------
For each entry below, report its lag phase (h) of S. mutans growth value.
# Tested on: Streptococcus mutans
# Assay info: calorimetric measurement of suppression of bacterial growth (S. mutans)
# Type: cell-based
# Cond: single essential oil component at 0.1% in BHI
Give bare numbers, in h.

Task item: Tell me the measured lag phase (h) of S. mutans growth of COC(=O)c1ccccc1O [methyl salicylate] , please.
Reply: 5

Others:
Task item: Tell me the measured lag phase (h) of S. mutans growth of CC12CCC(CC1)C(C)(C)O2 [Eucalyptol] , please.
Reply: 5
